Biological target: UniProtKB P78368
Sequence (P78368 whole entry, species assumed): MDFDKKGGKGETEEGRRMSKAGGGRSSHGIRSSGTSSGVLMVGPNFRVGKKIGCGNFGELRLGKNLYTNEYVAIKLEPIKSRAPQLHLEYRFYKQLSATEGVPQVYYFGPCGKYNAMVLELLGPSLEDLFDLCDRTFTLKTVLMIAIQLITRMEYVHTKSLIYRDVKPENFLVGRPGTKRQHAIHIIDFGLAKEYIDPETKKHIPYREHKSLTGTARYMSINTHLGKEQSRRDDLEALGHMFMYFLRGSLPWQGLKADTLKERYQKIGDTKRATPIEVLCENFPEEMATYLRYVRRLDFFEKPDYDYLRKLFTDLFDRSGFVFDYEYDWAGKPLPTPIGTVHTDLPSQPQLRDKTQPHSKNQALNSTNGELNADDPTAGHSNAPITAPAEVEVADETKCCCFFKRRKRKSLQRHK
Assay: Kinase selectivity, % remaining activity
Format: biochemical
Details: 10 μM compound, 10 μM ATP, duplicate, read-out: % of remaining activity (relative to DMSO)
measuredProperty: remaining activity at 10 µM (%)
Entry rule: numbers only, all in %.

Completed entries (count: 4):
cpdSmiles	remaining activity at 10 µM / %
Nc1ncc(-c2nc3ccccc3o2)c(-c2ccncc2)n1	58
NC(=O)c1c(N)c(C(=O)c2ccc(F)cc2)n2ccccc12	77.7
CNc1c(C(N)=O)c2ccccn2c1C(=O)c1ccc(F)cc1	95.5
COc1ccc(C=C2N=C(c3cccs3)OC2=O)cc1	47.3

Here's the next entry for you.
-- ask Which remaining activity at 10 µM value is on record for `Nc1ncnc2c1c(COc1cccc(Cl)c1)nn2C1CCOCC1` ?
-- reply 86

====

Assay: Pharmacokinetics in male CD-1 mice
Type: in vivo
Details: mouse; IV 3 mg/kg, plasma, male CD-1 mice; predicted
Listed next: entries and their corresponding clearance.
Return type: number; implicit unit L/h/kg.

compound	unitSymbol	clearance
CNc1c(C(N)=O)c2ccccn2c1C(=O)c1ccc(F)cc1 [Compound A]	L/h/kg	6

Alright, here's another compound for you.
-- ask Field request: clearance | item: Nc1ncc(-c2nc3ccccc3o2)c(-c2ccncc2)n1 [Comparative Compound 324]
-- reply 9.72

====

Test: Pharmacokinetics in male CD-1 mice
Format: in vivo
Conditions: mouse; IV 3 mg/kg, plasma, male CD-1 mice; predicted; read-out: Vz
Experimental: Six groups of male CD-1 mice of approximately 25-35 g (about 8 weeks of age) were dosed with Comparative compound 324 and Compound A intravenously (IV) (in 10% DMSO:90% Hydroxypropyl-β-cyclodextrin (20% aq. w/v)) or orally (PO) (in 0.5% w/v methylcelluose (aq.) according to the regimen shown in Table 6. Intravenous doses was administered into a tail vein at a constant dose volume of 5 mL/kg to achieve a dose level of 3 mg/kg. […]
measuredProperty: Vd (L/kg)
// return numeric value only (unit: L/kg, not printed)

compound	measuredProperty	unitSymbol	readoutNumber
Nc1ncc(-c2nc3ccccc3o2)c(-c2ccncc2)n1 [Comparative Compound 324]	Vd	L/kg	1.27

Shift focus to the following entry.
-- ask If you can, please state the reported Vd value of CNc1c(C(N)=O)c2ccccn2c1C(=O)c1ccc(F)cc1 [Compound A] .
-- reply 2

====

Below: a set of entries, each annotated with reported remaining activity at 10 µM.
Target: RIPK2 (Homo sapiens, UniProt O43353)
Sequence (O43353 whole entry): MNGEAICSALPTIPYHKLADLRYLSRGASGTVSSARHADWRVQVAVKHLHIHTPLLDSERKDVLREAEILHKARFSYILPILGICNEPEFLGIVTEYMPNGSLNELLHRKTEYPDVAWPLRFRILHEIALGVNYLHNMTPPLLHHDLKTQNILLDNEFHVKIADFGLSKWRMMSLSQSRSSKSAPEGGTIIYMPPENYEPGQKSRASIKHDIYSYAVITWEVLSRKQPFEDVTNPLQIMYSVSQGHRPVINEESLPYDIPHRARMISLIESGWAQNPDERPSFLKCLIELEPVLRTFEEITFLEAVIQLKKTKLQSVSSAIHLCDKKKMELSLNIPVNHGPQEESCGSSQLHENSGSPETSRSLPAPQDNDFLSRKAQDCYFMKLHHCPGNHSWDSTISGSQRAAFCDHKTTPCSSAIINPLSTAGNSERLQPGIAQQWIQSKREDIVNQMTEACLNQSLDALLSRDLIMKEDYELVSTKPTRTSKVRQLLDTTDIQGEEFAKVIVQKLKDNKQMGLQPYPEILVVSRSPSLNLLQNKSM
Experiment: Kinase selectivity, % remaining activity
Type: biochemical
Details: 10 μM compound, 10 μM ATP, duplicate, read-out: % of remaining activity (relative to DMSO)
Supply the numeric figure in %, leaving out any unit text.

molecule	remaining activity at 10 µM [%]
Nc1ncnc2c1c(COc1cccc(Cl)c1)nn2C1CCOCC1 [PF4800567]	47.6
CNc1c(C(N)=O)c2ccccn2c1C(=O)c1ccc(F)cc1 [Compound A]	93.5
NC(=O)c1c(N)c(C(=O)c2ccc(F)cc2)n2ccccc12 [Comparative Compound 987]	36.3
Nc1ncc(-c2nc3ccccc3o2)c(-c2ccncc2)n1 [Comparative Compound 324]	92.2

Now for a further molecule.
-- ask Can you share its remaining activity at 10 µM? I mean this molecule: COc1ccc(C=C2N=C(c3cccs3)OC2=O)cc1 [Comparative Compound 315]
-- reply 93.4

====

Biological target: CDK5/p25 (Homo sapiens, UniProt Q00535)
Sequence (Q00535 whole entry, species assumed): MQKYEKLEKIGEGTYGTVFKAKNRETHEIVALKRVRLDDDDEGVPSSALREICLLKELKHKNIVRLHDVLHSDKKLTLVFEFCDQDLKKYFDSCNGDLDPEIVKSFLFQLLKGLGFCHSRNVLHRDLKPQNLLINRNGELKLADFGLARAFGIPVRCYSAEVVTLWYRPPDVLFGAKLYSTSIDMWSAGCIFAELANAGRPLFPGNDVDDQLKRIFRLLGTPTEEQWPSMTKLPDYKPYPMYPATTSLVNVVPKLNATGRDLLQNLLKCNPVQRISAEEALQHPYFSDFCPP
Assay: Kinase selectivity, % remaining activity
Assay type: biochemical
Conditions: 10 μM compound, 10 μM ATP, duplicate, read-out: % of remaining activity (relative to DMSO)
measuredProperty: remaining activity at 10 µM (%)
Give the number; % is assumed, so skip it.

For orientation, consider the following solved cases.
compound	testedOn	remaining activity at 10 µM / %
CNc1c(C(N)=O)c2ccccn2c1C(=O)c1ccc(F)cc1 [Compound A]	CDK5/p25 (Homo sapiens, UniProt Q00535)	90.2
Nc1ncc(-c2nc3ccccc3o2)c(-c2ccncc2)n1 [Comparative Compound 324]	CDK5/p25 (Homo sapiens, UniProt Q00535)	87.7
COc1ccc(C=C2N=C(c3cccs3)OC2=O)cc1 [Comparative Compound 315]	CDK5/p25 (Homo sapiens, UniProt Q00535)	96.1
Nc1ncnc2c1c(COc1cccc(Cl)c1)nn2C1CCOCC1 [PF4800567]	CDK5/p25 (Homo sapiens, UniProt Q00535)	97.7

-- ask Quick check: remaining activity at 10 µM of NC(=O)c1c(N)c(C(=O)c2ccc(F)cc2)n2ccccc12 [Comparative Compound 987] ?
-- reply 98.2

====

Target: ALK5/TGFBR1 (Homo sapiens, UniProt P36897)
Sequence (P36897 34-503): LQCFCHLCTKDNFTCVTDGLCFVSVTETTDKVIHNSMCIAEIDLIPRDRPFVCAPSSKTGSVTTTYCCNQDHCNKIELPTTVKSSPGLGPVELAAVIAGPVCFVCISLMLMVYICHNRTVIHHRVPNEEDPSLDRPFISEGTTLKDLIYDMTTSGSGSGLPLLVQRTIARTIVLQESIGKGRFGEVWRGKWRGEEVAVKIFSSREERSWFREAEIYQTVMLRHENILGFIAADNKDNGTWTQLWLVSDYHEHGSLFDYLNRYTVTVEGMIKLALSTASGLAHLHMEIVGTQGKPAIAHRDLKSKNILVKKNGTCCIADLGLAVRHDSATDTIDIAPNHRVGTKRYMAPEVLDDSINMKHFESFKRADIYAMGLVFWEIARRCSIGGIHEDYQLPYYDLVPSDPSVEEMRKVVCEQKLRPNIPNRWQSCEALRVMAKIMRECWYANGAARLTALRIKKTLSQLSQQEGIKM
Assay: Kinase selectivity, % remaining activity
Assay type: biochemical
Conditions: 10 μM compound, 10 μM ATP, duplicate, read-out: % of remaining activity (relative to DMSO)
measuredProperty: remaining activity at 10 µM (%)
Could you give me the number in %? Just the number is fine.

cpdSmiles	remaining activity at 10 µM [%]
CNc1c(C(N)=O)c2ccccn2c1C(=O)c1ccc(F)cc1	110

-- ask Request the reported remaining activity at 10 µM associated with `Nc1ncc(-c2nc3ccccc3o2)c(-c2ccncc2)n1`
-- reply 105

-- ask Dear colleague, I am looking for the recorded remaining activity at 10 µM of the following compound: `NC(=O)c1c(N)c(C(=O)c2ccc(F)cc2)n2ccccc12`
-- reply 39.8

-- ask Form field: reported remaining activity at 10 µM of `COc1ccc(C=C2N=C(c3cccs3)OC2=O)cc1`
-- reply 107

-- ask Look at this compound and give its reported remaining activity at 10 µM. `Nc1ncnc2c1c(COc1cccc(Cl)c1)nn2C1CCOCC1`
-- reply 105

====

Assay: in vitro
Details: human, Cell Count AC50
Procedure: The cytotoxicity screening panel was performed by Cyprotex® according to their established protocols. HepG2 cells were plated on 96-well tissue culture treated black walled clear bottomed polystyrene plates, 100 μL per well. […] Cytotoxicity was assessed using a multiparametric approach using High Content Screening (HCS) O'Brien P and Haskins J R (2007) High Content Screening: A Powerful Approach to Systems Cell Biology and Drug Discovery Ed. […]
measuredProperty: AC50 at 72 h (µM)
Express your answer in µM, writing the number without its unit.

-- ask // returns reported AC50 at 72 h for input `CNc1c(C(N)=O)c2ccccn2c1C(=O)c1ccc(F)cc1`
-- reply 7.88

====

Listing of recorded AC50 at 72 h by entry.
Assay: in vitro
Conditions: human, Mitochondrial mass AC50

cpdSmiles	AC50 at 72 h
Nc1ncc(-c2nc3ccccc3o2)c(-c2ccncc2)n1	> 100 µM

Please examine the following record next.
-- ask AC50 at 72 h lookup needed for `CNc1c(C(N)=O)c2ccccn2c1C(=O)c1ccc(F)cc1` , thanks.
-- reply > 40 µM

====

Recorded Tmax values for a group of molecules are listed next.
Assay: Pharmacokinetics in male CD-1 mice
Type: in vivo
Conditions: mouse; IV 3 mg/kg, plasma, male CD-1 mice
Experimental: Six groups of male CD-1 mice of approximately 25-35 g (about 8 weeks of age) were dosed with Comparative compound 324 and Compound A intravenously (IV) (in 10% DMSO:90% Hydroxypropyl-β-cyclodextrin (20% aq. w/v)) or orally (PO) (in 0.5% w/v methylcelluose (aq.) according to the regimen shown in Table 6. Intravenous doses was administered into a tail vein at a constant dose volume of 5 mL/kg to achieve a dose level of 3 mg/kg. […]
Field: numeric (min). Do not append units.

cpdSmiles	measuredProperty	readoutNumber
Nc1ncc(-c2nc3ccccc3o2)c(-c2ccncc2)n1	Tmax	4.98

-- ask Reported Tmax, molecule `CNc1c(C(N)=O)c2ccccn2c1C(=O)c1ccc(F)cc1` : ____
-- reply 4.98

====

Target: CK1d (casein kinase 1 delta) (Homo sapiens)
Sequence (P48730 whole entry): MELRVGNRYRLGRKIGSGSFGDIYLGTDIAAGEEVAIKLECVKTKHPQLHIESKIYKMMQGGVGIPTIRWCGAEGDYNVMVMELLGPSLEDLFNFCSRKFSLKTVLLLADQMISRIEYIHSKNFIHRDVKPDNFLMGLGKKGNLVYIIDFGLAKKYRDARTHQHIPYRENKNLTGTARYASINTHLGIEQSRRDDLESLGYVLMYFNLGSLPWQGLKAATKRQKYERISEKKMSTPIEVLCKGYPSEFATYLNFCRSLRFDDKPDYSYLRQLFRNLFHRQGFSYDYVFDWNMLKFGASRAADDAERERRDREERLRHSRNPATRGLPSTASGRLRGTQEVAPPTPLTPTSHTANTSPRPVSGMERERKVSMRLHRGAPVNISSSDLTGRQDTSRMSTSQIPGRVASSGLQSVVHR
Experiment: Kinase selectivity, % remaining activity and IC50
Settings: casein kinase 1 delta; 10-dose, 3 fold serial dilution, 10 μM ATP
measuredProperty: pIC50
Conceptually, pIC50 converts a concentration in mol/L into minus its log10.

Past entries and their recorded results:
cpdSmiles	measuredProperty	readoutNumber
O=C1Nc2ccc(I)cc2/C1=C/c1cc(Br)c(O)c(Br)c1	pIC50	6.95
NC(=O)c1c(N)c(C(=O)c2ccc(F)cc2)n2ccccc12	pIC50	6.51
COc1ccc(C=C2N=C(c3cccs3)OC2=O)cc1	pIC50	6.36
CNc1c(C(N)=O)c2ccccn2c1C(=O)c1ccc(F)cc1	pIC50	7.76

Continue with the molecule presented below.
-- ask Look at this molecule and give its reported pIC50. `Nc1ncc(-c2nc3ccccc3o2)c(-c2ccncc2)n1`
-- reply 6.32

====

Molecular target: UniProt Q86V86
Experiment: Kinase selectivity, % remaining activity
Type: biochemical
Conditions: 10 μM compound, 10 μM ATP, duplicate, read-out: % of remaining activity (relative to DMSO)
Binary call on remaining activity at 10 µM with cut-off 90%: strictly below means yes (1), and equality or higher means no (0).

The following compounds have reported results that may help.
cpdSmiles	testedOn	answerLabel
COc1ccc(C=C2N=C(c3cccs3)OC2=O)cc1	UniProt Q86V86	yes (1)
Nc1ncnc2c1c(COc1cccc(Cl)c1)nn2C1CCOCC1	UniProt Q86V86	no (0)
Nc1ncc(-c2nc3ccccc3o2)c(-c2ccncc2)n1	UniProt Q86V86	no (0)

Okay, next one:
-- ask Please let me know if `CNc1c(C(N)=O)c2ccccn2c1C(=O)c1ccc(F)cc1` shows remaining activity at 10 µM below 90%.
-- reply no (0)

Ref: patent US10815230B2
